Data origin: patent EP4759810A1

Assay: Metabolic stability assay in liver microsomes (human)
Assay type: in vitro ADME
Settings: human liver microsomes; read-out: clearance rate (metabolic clearance rate)
Property Name: microsomal CLint at 1 µM (µL/min/mg)
Number in µL/min/mg, nothing else.

{"Compound": "O=C(Nc1nc2ccccc2s1)c1cccc2c1CN(c1ccc(CCCOc3ccc(C#CCN4CCNCC4)cc3F)c(C(=O)O)n1)CC2", "Property Name": "microsomal CLint at 1 µM", "Observed Measurement": 7.36}

Continue with the compound presented below.
The compound listed as O=C1CCC(N2C(=O)c3cccc(NCCN4CCC(CN5CCN(CC#Cc6ccc(OCCCc7ccc(N8CCc9cccc(C(=O)Nc%10nc%11ccccc%11s%10)c9C8)nc7C(=O)O)c(F)c6)CC5)CC4)c3C2=O)C(=O)N1 (centres unmarked) shows microsomal CLint at 1 µM equal to 2.77

----------
Test: Metabolic stability assay in liver microsomes (human)
Type: in vitro ADME
Conditions: human liver microsomes 0.5 mg/mL; 1 µM compound; 37°C
Property Name: Clint (µL/min/mg protein)
Give the value, in units of µL/min/mg protein, as a plain number.

These solved cases illustrate the format of a correct answer.
{"Compound": "[2H]C1([2H])Cc2cccc(C(=O)Nc3nc4ccccc4s3)c2CN1c1ccc(-c2cnn(CC34CC5CC(CC(C5)C3)C4)c2C)c(C(=O)O)n1 [Compound A13D-6]", "Unit Label": "µL/min/mg protein", "Clint": 50.18}
{"Compound": "[2H]C1([2H])CN(c2ccc(-c3cnn(CC45CC6CC(CC(C6)C4)C5)c3C)c(C(=O)O)n2)Cc2c(C(=O)Nc3nc4ccccc4s3)cccc21 [Compound A13D-5]", "Unit Label": "µL/min/mg protein", "Clint": 53.56}
{"Compound": "[2H]c1c([2H])c([2H])c2sc(NC(=O)c3cccc4c3CN(c3ccc(-c5cnn(CC67CC8CC(CC(C8)C6)C7)c5C)c(C(=O)O)n3)CC4)nc2c1[2H] [Compound A13D-1]", "Unit Label": "µL/min/mg protein", "Clint": 235.82}
{"Compound": "O=C(Nc1nc2ccccc2s1)c1cccc2c1CN(c1ccc(CCCOc3ccc(C#CCN4CCNCC4)cc3F)c(C(=O)O)n1)CC2 [Compound C1]", "Unit Label": "µL/min/mg protein", "Clint": 7.36}
{"Compound": "O=C1CCC(N2C(=O)c3cccc(NCCN4CCC(CN5CCN(CC#Cc6ccc(OCCCc7ccc(N8CCc9cccc(C(=O)Nc%10nc%11ccccc%11s%10)c9C8)nc7C(=O)O)c(F)c6)CC5)CC4)c3C2=O)C(=O)N1 (stereo not shown) [APQ2]", "Unit Label": "µL/min/mg protein", "Clint": 2.77}
{"Compound": "Cc1c(-c2ccc(N3CCc4cccc(C(=O)Nc5nc6ccccc6s5)c4C3)nc2C(=O)O)cnn1CC12CC3CC(CC(C3)C1)C2 [Compound A-1331852, A-1331852, reference compound]", "Unit Label": "µL/min/mg protein", "Clint": 53.07}

Read the next record carefully.
Sure, the documented Clint for [2H]C1([2H])c2c(C(=O)Nc3nc4ccccc4s3)cccc2C([2H])([2H])C([2H])([2H])N1c1ccc(-c2cnn(CC34CC5CC(CC(C5)C3)C4)c2C)c(C(=O)O)n1 [Compound A13D-2] is 55.31

----------
This listing pairs compounds with measured half-life at 1 µM.
Experiment: Metabolic stability assay in liver microsomes (human)
Assay type: in vitro ADME
Details: human liver microsomes 0.5 mg/mL; 1 µM compound; 37°C
Note to self: number, then unit, no commentary.

{"Compound": "O=C1CCC(N2C(=O)c3cccc(NCCN4CCC(CN5CCN(CC#Cc6ccc(OCCCc7ccc(N8CCc9cccc(C(=O)Nc%10nc%11ccccc%11s%10)c9C8)nc7C(=O)O)c(F)c6)CC5)CC4)c3C2=O)C(=O)N1 (centres unmarked)", "half-life at 1 µM": "8.34 h"}

Switching to the query record.
# half-life at 1 µM of `O=C(Nc1nc2ccccc2s1)c1cccc2c1CN(c1ccc(CCCOc3ccc(C#CCN4CCNCC4)cc3F)c(C(=O)O)n1)CC2` = 3.14 h
